# credit: paper PMC12703733

- Assay type: cell-based, human
- Details: Cell viability (%)
Bridge positions count the residues as written; N and C are the ends. Square brackets hold non-standard residues; d marks the D form. Peptide text beside a SMILES is read from it.
Measurement Name: viability at 50 µM (%)
Answers are plain numbers, in %.

Entry CC[C@H](C)[C@H](NC(=O)[C@H](CCCNC(=N)N)NC(=O)[C@H]1CCC(=O)NCCCC[C@H](NC(=O)[C@H](Cc2ccccc2)NC(=O)[C@H](Cc2c[nH]c3ccccc23)NC(=O)[C@@H]2CCCN2C(=O)[C@@H](NC(=O)[C@@H](N)Cc2ccccc2)C(C)C)C(=O)N[C@@H](CCCCN)C(=O)N[C@@H](Cc2ccccc2)C(=O)N[C@H](CC(C)C)C(=O)N1)C(=O)N[C@@H](CC(C)C)C(N)=O [Peptide 2, FVPWF[KKFle]RIL] (H-FVPWFKKF[dL][dE]RIL-NH2; lactam 6-10) ; viability at 50 µM = 64
